- TARGET_OF_ASSAY: Recombinant human his-tagged IGF 1R extracellular domain protein (human) (UniProt P08069)
- TEST_DETAILS: SPR, captured IgG, IGF-1R ECD-his analyte, dissociation pH 7.4
PARAMETER_MEASURED: Kd (pM)
Output spec: scalar in pM, unitless text.

Q: Read off the recorded Kd for VRDN-02534 (antibody, V domains shown) VH: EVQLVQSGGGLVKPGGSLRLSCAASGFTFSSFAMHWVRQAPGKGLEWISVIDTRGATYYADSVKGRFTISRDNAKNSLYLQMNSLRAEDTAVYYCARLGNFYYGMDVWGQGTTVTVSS VL: EIVLTQSPGTLSVSPGERATLSCRASQSIHSSLHWYQQKPGQAPRLLIKYASQSLSGIPDRFSGSGSGTDFTLTISRLEPEDFAVYYCHQSSRLPHTFGQGTKVEIK
A: 5.1
